Quick reference: phosphorylation enrichment of the listed items.
# study.target: MERTK (UniProt Q12866)
# Sequence (Q12866 whole entry, looked up): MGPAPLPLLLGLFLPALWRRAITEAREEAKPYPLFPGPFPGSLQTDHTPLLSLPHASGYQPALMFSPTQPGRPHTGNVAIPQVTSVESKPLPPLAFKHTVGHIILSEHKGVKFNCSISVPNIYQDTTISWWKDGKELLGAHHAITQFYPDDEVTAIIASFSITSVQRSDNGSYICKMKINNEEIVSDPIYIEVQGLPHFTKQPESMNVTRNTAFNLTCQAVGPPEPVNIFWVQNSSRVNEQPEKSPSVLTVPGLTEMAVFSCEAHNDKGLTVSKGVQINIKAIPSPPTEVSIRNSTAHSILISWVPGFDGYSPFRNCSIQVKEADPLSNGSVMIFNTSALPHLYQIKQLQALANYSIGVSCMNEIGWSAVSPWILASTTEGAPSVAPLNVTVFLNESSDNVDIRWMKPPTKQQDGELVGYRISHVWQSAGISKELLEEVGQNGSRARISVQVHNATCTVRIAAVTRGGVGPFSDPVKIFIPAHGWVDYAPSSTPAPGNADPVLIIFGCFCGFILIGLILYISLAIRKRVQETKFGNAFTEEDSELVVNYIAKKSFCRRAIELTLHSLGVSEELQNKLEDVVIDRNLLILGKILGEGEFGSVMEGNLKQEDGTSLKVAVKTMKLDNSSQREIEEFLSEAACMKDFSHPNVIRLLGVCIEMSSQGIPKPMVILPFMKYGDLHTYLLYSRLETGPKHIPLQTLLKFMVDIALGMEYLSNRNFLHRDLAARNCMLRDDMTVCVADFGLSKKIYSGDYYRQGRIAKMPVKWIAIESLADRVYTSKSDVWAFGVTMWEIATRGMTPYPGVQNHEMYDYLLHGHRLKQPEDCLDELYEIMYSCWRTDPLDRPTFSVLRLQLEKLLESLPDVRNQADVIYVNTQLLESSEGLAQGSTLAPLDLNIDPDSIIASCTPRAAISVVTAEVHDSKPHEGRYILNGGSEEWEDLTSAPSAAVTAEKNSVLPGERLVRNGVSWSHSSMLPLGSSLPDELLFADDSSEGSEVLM
# protocol.details: phosphorylation enrichment, bacterial display (enrichment ratio); higher = better substrate or ligand; peptides without Tyr show the background;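 also: 11-residue human phosphosite peptides and single-mutation variants displayed on the E. coli surface, counted by deep sequencing, each peptide's frequency after selection divided by its frequency in the unselected input library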;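 also: frequency after pTyr selection over input frequency; kinase dosed for 20-30% of maximal phosphorylation in three min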

{"entry.sequence": "SSREEYFIGGG [GYPC_Y126_K124E]", "phosphorylation enrichment": 0.471}
{"entry.sequence": "KNKNRYKNILP [PTPN11_Y279]", "phosphorylation enrichment": 0.799}
{"entry.sequence": "SHTPSYCDESL [RITA1_Y109]", "phosphorylation enrichment": 0.419}
{"entry.sequence": "FPCSVYVPDEW [INSR_Y1011]", "phosphorylation enrichment": 0.476}
{"entry.sequence": "PFIDSYEKDVA [PGM1_Y521_L516P_YF]", "phosphorylation enrichment": 0.378}
{"entry.sequence": "EKLQQYLAPGM [EPHB3_Y600_I601L]", "phosphorylation enrichment": 0.487}
{"entry.sequence": "NQKGKYFNVER [ANAPC4_Y469_R465Q]", "phosphorylation enrichment": 0.373}
{"entry.sequence": "SIKNKYVTALY [KCNH2_Y611_D609N]", "phosphorylation enrichment": 0.528}
{"entry.sequence": "PRAGVYPEKDQ [DNM2_Y626_L621P]", "phosphorylation enrichment": 0.511}
{"entry.sequence": "SGGLDYGMVGG [TNRC6B_Y1382_M1380L]", "phosphorylation enrichment": 0.43}
{"entry.sequence": "QLQTTYPSSDN [MAX_Y115_N114T]", "phosphorylation enrichment": 0.357}
{"entry.sequence": "HNELFYEAAEH [VANGL1_Y345_E347A_YF]", "phosphorylation enrichment": 1.46}
{"entry.sequence": "IHYPPYTDWNQ [ALDH3B2_Y365]", "phosphorylation enrichment": 0.429}
{"entry.sequence": "QRKRAYVEIEY [MAK16_Y282]", "phosphorylation enrichment": 0.416}
{"entry.sequence": "NNHGNYIVRLG [ETFDH_Y172]", "phosphorylation enrichment": 0.416}
{"entry.sequence": "YSTDCYRVGGH [NTRK2_Y707_Y706C]", "phosphorylation enrichment": 3.67}
{"entry.sequence": "YVGGFYGGCNE [CTSC_Y352]", "phosphorylation enrichment": 0.682}
{"entry.sequence": "KKKKQYKDKYL [CASK_Y708]", "phosphorylation enrichment": 0.631}
{"entry.sequence": "VSRGRYRPEEC [B4GALT4_Y113_Q116E]", "phosphorylation enrichment": 0.614}
{"entry.sequence": "ADARMYGDLPW [PLP1_Y207_V209D]", "phosphorylation enrichment": 0.52}
{"entry.sequence": "FLNSIYKSRDE [ROS1_Y2227]", "phosphorylation enrichment": 0.357}
{"entry.sequence": "RRMLQYLTVND [PPFIBP2_Y663]", "phosphorylation enrichment": 0.475}
{"entry.sequence": "VVFIKYLPEWT [PSEN1_Y240_L235V]", "phosphorylation enrichment": 0.343}
{"entry.sequence": "LAAAGYDVKKN [H1-3_Y72_E75K]", "phosphorylation enrichment": 0.28}
